Listed below: half-life values for each entry.
Test: Rat pharmacokinetics
Assay type: in vivo
Conditions: male, Sprague-Dawley, plasma, IV, 3 mg/kg free base, read-out: t1/2 (converted)
Procedure: Pharmacokinetic (PK) data was obtained in rats to assess the bioavailability of test compound. In particular, the following PK parameters were calculated: bioavailability as measured by area under the Concentration/Time curve (AUC), fraction of dose available (% F; further defined below), clearance (CL), volume of distribution (Vd), and half-life (t½). […] Three rats were used per dosing group. […] Plasma samples were analyzed for compound levels by LC-MS/MS at PPD. […]
quantity_kind: half-life (h)

{"compound": "O[C@@H]1[C@@H](Cc2ccccc2)CNC[C@H]1O [(3R,4R,5S)-5-benzyl-piperidine-3,4-diol]", "quantity_kind": "half-life", "reported_value": 1.7}
{"compound": "Cl.O[C@H]1[C@H](O)CNC[C@@H]1C(F)F [Cmpd 6]", "quantity_kind": "half-life", "reported_value": 1.1}

Data provenance is patent US8604206B2.
